# System Under Test: T1, human CC chemokine receptor 1 (human CCR1) (human, UniProt P32246 1-355)
# T1 construct: endogenous on THP-1 cells in the migration assays; also called hCCR1; CHO-S-hCCR1 (expressing cells)
# T1 sequence: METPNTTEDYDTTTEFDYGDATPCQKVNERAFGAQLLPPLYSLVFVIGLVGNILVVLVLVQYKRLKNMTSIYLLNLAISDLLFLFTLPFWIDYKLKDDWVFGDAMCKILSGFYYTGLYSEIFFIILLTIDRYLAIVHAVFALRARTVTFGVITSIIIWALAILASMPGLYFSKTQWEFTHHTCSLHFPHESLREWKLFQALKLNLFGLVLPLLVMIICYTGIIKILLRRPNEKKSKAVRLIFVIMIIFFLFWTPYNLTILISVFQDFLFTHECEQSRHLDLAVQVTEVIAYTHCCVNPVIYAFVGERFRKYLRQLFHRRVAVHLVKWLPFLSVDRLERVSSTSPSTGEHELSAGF
# Protocol: flow cytometry on CHO-S-hCCR1 cells; bound = fluorescence 10 times or more that of isotype control chDNP1

Binder	binding result
chKM5908′ mut25 (antibody, V domains shown) VH: QVQLKQSGPGLVQPSQSLSITCTVSGFSLNNYGVHWVRQPPGKGLEWLGVTWSAGTTVYNAAFISRLSISKDDSKSQVFFKMNSLQAGDTAIYYCAKDGSRYYTAMDYWGQGTSVTVSS VL: DVVMTQTPLSLPVSLGDQASIFCRSSQSLVHRNGITFFHWYLQKPGQSPKLLIYKVSNKFSGVPDRFSGSGSGTDFTLKISRVAPDDLGVYFCSQGTHVPPTFGGGTKLEIK	binds
chKM5908′ mut21 (antibody, V domains shown) VH: QVQLKQSGPGLVQPSQSLSITCTVSGFSLNNYGVHWVRQPPGKGLEWLGVTWSAGTTVYNAAFISRLSISKDDSKSQVFFKMNSLQAGDTAIYYCAKDGSRYYTAMDYWGQGTSVTVSS VL: DVVMTQTPLSLPVSLGDQASIFCRSSQSLVHRNGITFFHWYLQKPGQSPKLLIYKISNRFSGVPDRFSGSGSGTDFTLKISRVAPDDLGVYFCSQGTHVPPTFGGGTKLEIK	binds
